Biological target: c-fms (Homo sapiens, UniProt P07333)
Sequence (P07333 20-972): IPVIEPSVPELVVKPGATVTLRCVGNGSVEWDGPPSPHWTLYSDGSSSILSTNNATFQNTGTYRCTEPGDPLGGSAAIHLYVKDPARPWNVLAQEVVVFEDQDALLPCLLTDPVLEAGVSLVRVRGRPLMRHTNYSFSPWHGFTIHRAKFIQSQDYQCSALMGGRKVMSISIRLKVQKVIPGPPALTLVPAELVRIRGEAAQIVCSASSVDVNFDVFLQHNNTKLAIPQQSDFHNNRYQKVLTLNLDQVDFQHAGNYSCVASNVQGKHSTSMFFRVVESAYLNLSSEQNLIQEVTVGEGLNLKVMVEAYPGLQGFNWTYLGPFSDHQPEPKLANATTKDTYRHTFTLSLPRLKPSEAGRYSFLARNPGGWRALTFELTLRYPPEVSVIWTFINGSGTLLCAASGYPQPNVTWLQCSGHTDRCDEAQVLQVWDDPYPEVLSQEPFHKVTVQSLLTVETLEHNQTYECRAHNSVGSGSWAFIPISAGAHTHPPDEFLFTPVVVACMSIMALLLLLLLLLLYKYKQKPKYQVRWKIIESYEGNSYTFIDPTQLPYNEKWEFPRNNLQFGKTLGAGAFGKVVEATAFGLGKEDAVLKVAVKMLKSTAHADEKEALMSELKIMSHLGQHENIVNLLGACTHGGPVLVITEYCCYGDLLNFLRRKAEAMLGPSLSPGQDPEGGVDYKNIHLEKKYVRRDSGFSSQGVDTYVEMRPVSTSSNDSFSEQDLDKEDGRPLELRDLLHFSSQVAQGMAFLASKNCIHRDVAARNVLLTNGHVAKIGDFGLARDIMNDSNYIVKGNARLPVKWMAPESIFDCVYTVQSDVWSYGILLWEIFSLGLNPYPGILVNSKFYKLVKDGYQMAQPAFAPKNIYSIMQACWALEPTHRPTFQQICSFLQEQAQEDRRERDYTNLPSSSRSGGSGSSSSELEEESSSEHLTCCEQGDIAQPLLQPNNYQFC
Test: c-fms autophosphorylation, fluorescence polarization competition immunoassay
Type: biochemical
Conditions: 10 nM c-fms, 1 mM ATP, 5 mM MgCl2, 45 min room temperature; averages of three independent measurements; read-out: c-fms Autophosphorylation IC50
Decide using IC50 alone. Strictly below 10 nM: fulfilled. Equal to or above 10 nM: not fulfilled.

## Task Criterion: IC50 strictly below 10 nM. Is it met by NC(=O)c1cn(-c2ccc3c(c2)CCC3)c2nc(Nc3ccc(C[C@H]4COC(=O)N4)cc3)ncc2c1=O ?
## Result not fulfilled

## Task Criterion: IC50 strictly below 10 nM. Is it met by CNC(=O)c1cn(-c2ccc3c(c2)CCC3)c2nc(Nc3cccc(N4CCN(C)CC4)c3)ncc2c1=O ?
## Result fulfilled

## Task Criterion: IC50 strictly below 10 nM. Is it met by CNC(=O)c1cn(-c2ccc3c(c2)CCC3)c2nc(Nc3ccc(N4CC(C)NC(C)C4)cc3)ncc2c1=O (stereo not drawn) ?
## Result fulfilled

## Task Criterion: IC50 strictly below 10 nM. Is it met by CNC(=O)c1cn(C2CCCCC2)c2nc(Nc3cccc(N4CCN(C)CC4)c3)ncc2c1=O ?
## Result not fulfilled

## Task Criterion: IC50 strictly below 10 nM. Is it met by CCNC(=O)c1cn(-c2ccc3c(c2)CCC3)c2nc(Nc3ccc(OCC(O)CN(C)C)cc3)ncc2c1=O (stereo not drawn) ?
## Result not fulfilled

## Task Criterion: IC50 strictly below 10 nM. Is it met by CCNC(=O)c1cn(-c2ccc3c(c2)CCC3)c2nc(Nc3ccc(C4CCNCC4)cc3)ncc2c1=O ?
## Result not fulfilled

## Task Criterion: IC50 strictly below 10 nM. Is it met by CNC(=O)c1cn(-c2ccc3c(c2)CCC3)c2nc(Nc3ccc(C[C@H]4COC(=O)N4)cc3)ncc2c1=O ?
## Result not fulfilled

## Task Criterion: IC50 strictly below 10 nM. Is it met by NC(=O)c1cn(-c2ccc3c(c2)CCC3)c2nc(Nc3ccc(C4CCNCC4)cc3)ncc2c1=O ?
## Result fulfilled

## Task Criterion: IC50 strictly below 10 nM. Is it met by CNC(=O)c1cn(-c2ccc3c(c2)CCC3)c2nc(Nc3cccc(CN(C)C)c3)ncc2c1=O ?
## Result not fulfilled

## Task Criterion: IC50 strictly below 10 nM. Is it met by NC(=O)c1cn(-c2ccc3c(c2)CCC3)c2nc(Nc3ccc(N4CCOCC4)cc3)ncc2c1=O ?
## Result not fulfilled

## Task Criterion: IC50 strictly below 10 nM. Is it met by CNC(=O)c1cn(-c2ccc3c(c2)CCC3)c2nc(Nc3ccc(N4CCN(C)CC4)cc3)ncc2c1=O ?
## Result not fulfilled

## Task Criterion: IC50 strictly below 10 nM. Is it met by CN(C)c1ccc(Nc2ncc3c(=O)c(C(N)=O)cn(-c4ccc5c(c4)CCC5)c3n2)cc1 ?
## Result not fulfilled

## Task Criterion: IC50 strictly below 10 nM. Is it met by NC(=O)c1cn(-c2ccc3c(c2)CCC3)c2nc(Nc3cccc(N4CCNCC4)c3)ncc2c1=O ?
## Result fulfilled

## Task Criterion: IC50 strictly below 10 nM. Is it met by CN(C)Cc1cccc(Nc2ncc3c(=O)c(C(N)=O)cn(-c4ccc5c(c4)CCC5)c3n2)c1 ?
## Result not fulfilled

---

Target: c-fms (Homo sapiens)
Assay: c-fms autophosphorylation, fluorescence polarization competition immunoassay
Assay type: biochemical
Conditions: 10 nM c-fms, 1 mM ATP, 5 mM MgCl2, 45 min room temperature; averages of three independent measurements; read-out: c-fms Autophosphorylation IC50
Assignment: determine reported pIC50 for the given molecules.
Hey, just a heads up that pIC50 is the negative log base 10 of the concentration in molar.

## Task Give the reported pIC50 for this molecule. CCNC(=O)c1cn(-c2ccc3c(c2)CCC3)c2nc(Nc3ccc(CCN4CCOCC4)cc3)ncc2c1=O [Cpd 29]
## Result 7.48

## Task Give the reported pIC50 for this molecule. CNC(=O)c1cn(Cc2ccccc2)c2nc(Nc3ccc(N4CCN(C)CC4)cc3)ncc2c1=O [Cpd 85]
## Result 6.38

## Task Give the reported pIC50 for this molecule. CN(C)CC(=O)N1CCC(c2ccc(Nc3ncc4c(=O)c(C(N)=O)cn(C5CCCCC5)c4n3)cc2)CC1 [Cpd 68]
## Result 6.89

## Task Give the reported pIC50 for this molecule. CCNC(=O)c1cn(-c2ccc3c(c2)CCC3)c2nc(Nc3cccc(CN(C)C)c3)ncc2c1=O [Cpd 78]
## Result 6.85

---

Biological target: c-fms (Homo sapiens)
Test: c-fms autophosphorylation, fluorescence polarization competition immunoassay
Type: biochemical
Conditions: 10 nM c-fms, 1 mM ATP, 5 mM MgCl2, 45 min room temperature; averages of three independent measurements; read-out: c-fms Autophosphorylation IC50
Assignment: determine reported pIC50 for the given compounds.
Hey, just a heads up that pIC50 is the negative log base 10 of the concentration in molar.

## Task Give the reported pIC50 for this compound. CN1CCN(c2ccc(Nc3ncc4c(=O)c(C(N)=O)cn(-c5ccc6c(c5)CCC6)c4n3)cc2)CC1 [Cpd 7]
## Result 7.89

## Task Give the reported pIC50 for this compound. CNC(=O)c1cn(C2CCCCC2)c2nc(Nc3ccc(CCN4CCOCC4)cc3)ncc2c1=O [Cpd 58]
## Result 6.92

## Task Give the reported pIC50 for this compound. CCNC(=O)c1cn(-c2ccc3c(c2)CCC3)c2nc(Nc3cccc(C(=O)N(C)C)c3)ncc2c1=O [Cpd 81]
## Result 6.96

## Task Give the reported pIC50 for this compound. CN1CCN(c2ccc(Nc3ncc4c(=O)c(C(N)=O)cn(-c5ccccc5)c4n3)cc2)CC1 [Cpd 13]
## Result 6.14

## Task Give the reported pIC50 for this compound. CCNC(=O)c1cn(-c2ccc3c(c2)CCC3)c2nc(Nc3ccc(C[C@H]4COC(=O)N4)cc3)ncc2c1=O [Cpd 32]
## Result 7.48

## Task Give the reported pIC50 for this compound. CCOC(=O)c1cn(-c2ccc3c(c2)CCC3)c2nc(Nc3ccc(OCC(O)CN(C)C)cc3)ncc2c1=O (centres unmarked) [Cpd 2]
## Result 6.36

## Task Give the reported pIC50 for this compound. CNC(=O)c1cn(-c2ccc3c(c2)CCC3)c2nc(Nc3ccc(CCN4CCOCC4)cc3)ncc2c1=O [Cpd 28]
## Result 7.52

## Task Give the reported pIC50 for this compound. CN(C)CC(=O)N1CCC(c2ccc(Nc3ncc4c(=O)c(C(N)=O)cn(-c5ccc6c(c5)CCC6)c4n3)cc2)CC1 [Cpd 70]
## Result 5.96

---

Target: c-fms (Homo sapiens, UniProt P07333)
Assay: c-fms autophosphorylation, fluorescence polarization competition immunoassay
Assay type: biochemical
Conditions: 10 nM c-fms, 1 mM ATP, 5 mM MgCl2, 45 min room temperature; averages of three independent measurements; read-out: c-fms Autophosphorylation IC50
measurement_name: pIC50
Hey, just a heads up that pIC50 is the negative log base 10 of the concentration in molar.

## Task Give the reported pIC50 for this compound. CNC(=O)c1cn(-c2ccc3c(c2)CCC3)c2nc(Nc3cccc(N4CCNCC4)c3)ncc2c1=O
## Result 8.10

## Task Give the reported pIC50 for this compound. NC(=O)c1cn(C2CCCCC2)c2nc(Nc3ccc(CCN4CCOCC4)cc3)ncc2c1=O
## Result 7.59

## Task Give the reported pIC50 for this compound. CNC(=O)c1cn(-c2ccc3c(c2)CCC3)c2nc(Nc3ccc(CCN4CCN(C)CC4)cc3)ncc2c1=O
## Result 7.82

## Task Give the reported pIC50 for this compound. CCNC(=O)c1cn(-c2ccc3c(c2)CCC3)c2nc(Nc3ccc(N4CCNCC4)cc3)ncc2c1=O
## Result 7.80

---

Molecular target: c-fms (Homo sapiens)
Test: c-fms autophosphorylation, fluorescence polarization competition immunoassay
Assay type: biochemical
Settings: 10 nM c-fms, 1 mM ATP, 5 mM MgCl2, 45 min room temperature; averages of three independent measurements; read-out: c-fms Autophosphorylation IC50
Assignment: determine reported pIC50 for the given molecules.
Hey, just a heads up that pIC50 is the negative log base 10 of the concentration in molar.

## Task Give the reported pIC50 for this molecule. CN1CCN(c2ccc(Nc3ncc4c(=O)c(C(N)=O)cn(-c5ccc6c(c5)CCC6)c4n3)c(O)c2)CC1
## Result 7.03

## Task Give the reported pIC50 for this molecule. CNC(=O)c1cn(C2CCCCC2)c2nc(Nc3ccc(N4CCN(C)CC4)cc3)ncc2c1=O
## Result 6.80

## Task Give the reported pIC50 for this molecule. CC(C)NS(=O)(=O)CCc1ccc(Nc2ncc3c(=O)c(C(N)=O)cn(C4CCCCC4)c3n2)cc1
## Result 6.92

## Task Give the reported pIC50 for this molecule. NC(=O)c1cn(C2CCCCC2)c2nc(Nc3ccc(CCS(=O)(=O)N4CCOCC4)cc3)ncc2c1=O
## Result 6.92
